# credit: paper PMC12959773

Target: SLC7A11-SLC3A2 complex (Homo sapiens, UniProt Q9UPY5)
Construct: system xc-, heterodimeric light/heavy chain transporter; ectopically expressed in HEK293T cells; with Amino acid transporter heavy chain SLC3A2
Sequence (Q9UPY5 whole entry): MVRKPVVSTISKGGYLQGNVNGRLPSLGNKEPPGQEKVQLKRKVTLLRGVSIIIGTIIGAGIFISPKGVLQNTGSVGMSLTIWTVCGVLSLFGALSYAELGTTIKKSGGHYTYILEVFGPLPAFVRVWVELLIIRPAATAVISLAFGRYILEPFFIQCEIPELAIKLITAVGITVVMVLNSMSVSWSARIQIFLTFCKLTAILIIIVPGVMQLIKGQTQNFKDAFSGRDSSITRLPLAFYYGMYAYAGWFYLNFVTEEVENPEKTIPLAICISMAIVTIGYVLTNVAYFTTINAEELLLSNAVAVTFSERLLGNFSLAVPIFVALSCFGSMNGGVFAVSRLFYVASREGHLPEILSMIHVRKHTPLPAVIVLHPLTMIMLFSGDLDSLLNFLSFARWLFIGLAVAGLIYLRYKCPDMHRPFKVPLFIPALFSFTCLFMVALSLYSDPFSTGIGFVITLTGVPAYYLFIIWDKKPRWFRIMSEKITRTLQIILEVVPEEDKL
Sequence (P08195 103-630 partner): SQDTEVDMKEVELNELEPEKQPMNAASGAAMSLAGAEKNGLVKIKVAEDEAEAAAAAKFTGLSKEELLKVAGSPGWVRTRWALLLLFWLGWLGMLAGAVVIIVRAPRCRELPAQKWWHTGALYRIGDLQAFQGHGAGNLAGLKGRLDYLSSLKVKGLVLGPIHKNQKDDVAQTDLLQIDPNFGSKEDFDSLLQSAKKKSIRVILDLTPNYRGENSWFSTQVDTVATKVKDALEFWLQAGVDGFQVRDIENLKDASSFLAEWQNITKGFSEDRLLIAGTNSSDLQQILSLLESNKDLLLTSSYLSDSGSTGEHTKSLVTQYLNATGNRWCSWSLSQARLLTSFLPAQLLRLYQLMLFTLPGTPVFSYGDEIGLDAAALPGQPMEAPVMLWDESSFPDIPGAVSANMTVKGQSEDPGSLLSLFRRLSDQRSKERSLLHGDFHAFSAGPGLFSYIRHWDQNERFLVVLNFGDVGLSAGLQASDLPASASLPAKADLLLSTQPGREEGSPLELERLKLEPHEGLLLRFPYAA
Test: microscale thermophoresis
Settings: read-out: binding affinity
observable: Kd (µM)

- N[C@@H](CSSC[C@H](N)C(=O)O)C(=O)O [cystine]: 15.6

* * *

Target: SLC7A13-SLC3A1 complex (Homo sapiens, UniProt Q8TCU3)
Construct: heterodimeric light/heavy chain transporter, dimer of heterodimers; ectopically expressed in HEK293T / HEK293 cells (Expi293 for cryo-EM); with Amino acid transporter heavy chain SLC3A1
Sequence (Q8TCU3 whole entry): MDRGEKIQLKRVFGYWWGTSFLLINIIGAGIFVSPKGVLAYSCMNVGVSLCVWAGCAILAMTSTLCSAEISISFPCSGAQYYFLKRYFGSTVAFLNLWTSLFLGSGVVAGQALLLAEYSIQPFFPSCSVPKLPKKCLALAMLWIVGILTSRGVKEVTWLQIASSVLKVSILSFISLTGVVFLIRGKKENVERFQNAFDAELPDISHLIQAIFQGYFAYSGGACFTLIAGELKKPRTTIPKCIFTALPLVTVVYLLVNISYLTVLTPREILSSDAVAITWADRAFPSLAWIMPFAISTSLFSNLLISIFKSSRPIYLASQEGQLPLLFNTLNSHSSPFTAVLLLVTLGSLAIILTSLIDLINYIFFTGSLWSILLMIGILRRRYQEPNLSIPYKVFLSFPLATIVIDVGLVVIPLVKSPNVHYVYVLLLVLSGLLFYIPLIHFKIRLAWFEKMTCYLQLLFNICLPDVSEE
Sequence (Q07837 whole entry partner): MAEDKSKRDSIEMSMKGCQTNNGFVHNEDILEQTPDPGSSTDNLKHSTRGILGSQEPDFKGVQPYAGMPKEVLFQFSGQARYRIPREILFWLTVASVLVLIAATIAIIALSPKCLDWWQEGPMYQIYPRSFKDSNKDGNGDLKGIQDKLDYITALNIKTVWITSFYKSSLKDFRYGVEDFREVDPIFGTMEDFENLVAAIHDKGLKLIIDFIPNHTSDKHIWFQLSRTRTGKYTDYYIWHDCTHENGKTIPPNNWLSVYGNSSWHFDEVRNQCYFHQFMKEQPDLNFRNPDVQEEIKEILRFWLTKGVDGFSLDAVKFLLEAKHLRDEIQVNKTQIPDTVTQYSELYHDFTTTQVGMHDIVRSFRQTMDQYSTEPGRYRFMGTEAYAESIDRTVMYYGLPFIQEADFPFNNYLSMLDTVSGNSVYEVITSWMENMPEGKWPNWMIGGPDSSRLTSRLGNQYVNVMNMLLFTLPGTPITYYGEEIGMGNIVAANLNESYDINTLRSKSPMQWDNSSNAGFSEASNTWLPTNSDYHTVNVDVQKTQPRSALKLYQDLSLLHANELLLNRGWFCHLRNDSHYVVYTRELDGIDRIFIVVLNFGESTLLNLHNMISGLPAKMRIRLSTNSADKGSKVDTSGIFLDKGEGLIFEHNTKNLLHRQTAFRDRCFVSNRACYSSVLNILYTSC
Experiment: microscale thermophoresis
Details: read-out: binding affinity
pKd: −log10 of the molar value.
observable: pKd

* N[C@@H](CSSC[C@H](N)C(=O)O)C(=O)O | 3.95

* * *

Target: SLC7A9-SLC3A1 complex (Homo sapiens)
Construct: heterodimeric light/heavy chain transporter, dimer of heterodimers; ectopically expressed in HEK293T cells; with Amino acid transporter heavy chain SLC3A1
Sequence (P82251 whole entry): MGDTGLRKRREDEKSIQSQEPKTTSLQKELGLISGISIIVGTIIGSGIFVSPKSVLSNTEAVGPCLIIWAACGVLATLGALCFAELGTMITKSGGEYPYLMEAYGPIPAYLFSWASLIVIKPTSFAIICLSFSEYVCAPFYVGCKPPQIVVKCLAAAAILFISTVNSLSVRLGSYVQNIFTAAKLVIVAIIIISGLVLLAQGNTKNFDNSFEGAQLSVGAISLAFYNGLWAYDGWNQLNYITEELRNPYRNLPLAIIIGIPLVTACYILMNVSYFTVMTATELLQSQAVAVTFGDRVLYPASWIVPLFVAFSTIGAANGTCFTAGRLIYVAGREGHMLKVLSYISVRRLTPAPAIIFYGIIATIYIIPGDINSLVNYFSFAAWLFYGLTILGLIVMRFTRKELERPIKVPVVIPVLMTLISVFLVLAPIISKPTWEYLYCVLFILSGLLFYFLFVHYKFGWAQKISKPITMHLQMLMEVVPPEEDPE
Sequence (Q07837 whole entry partner): as the sequence (Q07837 whole entry partner) above
Assay: microscale thermophoresis
Conditions: read-out: binding affinity
pKd: −log10 of the molar value.
observable: pKd

• N[C@@H](CSSC[C@H](N)C(=O)O)C(=O)O = 3.97
